mean of TI/SF tested on human cells A498, BEAS-2B, Caco-2, HaCaT, HepG2, HUVEC, IMR90, N87: recorded values

>  <molecule>
O=C1/C(=C/c2ccc(Oc3ccc4oc(-c5ccccc5)cc(=O)c4c3)cc2)Oc2ccccc21 [E5]

>  <mean of TI/SF>
852

$$$$
>  <molecule>
CC(=O)Nc1ccc2c(c1)C(=O)/C(=C/c1ccc(OC(C)C)cc1)O2 [B5]

>  <mean of TI/SF>
103

$$$$
>  <molecule>
CC(=O)Nc1ccc2c(c1)C(=O)/C(=C/c1cccc(OCc3ccccc3)c1)O2 [A7]

>  <mean of TI/SF>
370

$$$$
>  <molecule>
O=C1/C(=C/c2ccc(OCc3ccccc3)cc2OCc2ccccc2)Oc2ccccc21 [C12]

>  <mean of TI/SF>
1169

$$$$
>  <molecule>
COc1ccc(/C=C2\Oc3cc(N)ccc3C2=O)cc1 [C11]

>  <mean of TI/SF>
355

$$$$
